From: ChEMBL document CHEMBL2440116

log10(MIC99) values for the molecules below.
test system: Mycobacterium tuberculosis; assay: Antitubercular activity against Mycobacterium tuberculosis H37Rv in Middlebrook 7H9 broth with glucose after 7 to 14 days by broth microdilution method; type: functional
PARAMETER MEASURED: log10(MIC99) (log10 of the value in µM)

INSERT INTO results (molecule, meas_value) VALUES
  ('COc1ccc(Nc2nc(-c3ccccn3)cs2)c(OC)c1', 0.80),
  ('CCCCCCCCCC(=O)Nc1nc(-c2ccccn2)cs1', 0.80),
  ('Cc1cccc(Nc2nc(-c3ccccn3)cs2)n1', 0.80),
  ('O=C(Nc1nnc(-c2ccccn2)o1)c1ccccc1F', 1.10),
  ('CCCCCC(=O)Nc1nc(-c2ccccn2)cs1', 0.80),
  ('CC(=O)c1ccccc1C(=O)Nc1nc(-c2ccccn2)cs1', 1.10),
  ('CCCCCCCC(=O)Nc1nc(-c2ccccn2)cs1', 0.80),
  ('O=C(Nc1nc(-c2ccccn2)cs1)c1ccccc1[N+](=O)[O-]', 0.20),
  ('O=C(Nc1nc(-c2ccccn2)cs1)C1CCCC1', 1.10),
  ('COc1ccc(C(=O)Nc2nc(-c3ccccn3)cs2)cc1', -0.41),
  ('O=C(Nc1nc(-c2ccccn2)cs1)C1CCC1', 1.10),
  ('O=C(Nc1nc(-c2ccccn2)c[nH]1)c1ccccc1', 1.40),
  ('O=C(Nc1nc(-c2ccccn2)cs1)c1cccc(Cl)c1', -0.72),
  ('O=C(Nc1nc(-c2ccccn2)cs1)c1c(F)cccc1F', -0.11),
  ('Cc1ccccc1Nc1nc(-c2ccccn2)cs1', 1.10),
  ('Fc1ccccc1Nc1nc(-c2ccccn2)cs1', 1.70),
  ('O=C(Nc1nc(-c2ccccn2)cs1)c1ccccc1Br', -0.41),
  ('O=C(Nc1nc(-c2ccccn2)cs1)c1cccnc1', 0.80),
  ('Cc1ccc(C(=O)Nc2nc(-c3ccccn3)cs2)cc1', -0.41),
  ('FC(F)(F)c1ccc(Nc2nc(-c3ccccn3)cs2)cc1', 1.40),
  ('O=C(Nc1nc(-c2ccccn2)cs1)c1ccccc1F', 0.20),
  ('COc1ccccc1C(=O)Nc1nc(-c2ccccn2)cs1', 0.80),
  ('Cc1ccccc1C(=O)Nc1nc(-c2ccccn2)cs1', -0.41),
  ('Cc1cccc(Nc2nc(-c3ccccn3)cs2)c1', 1.40),
  ('CC1CC1C(=O)Nc1nc(-c2ccccn2)cs1 (stereo not drawn)', 0.80),
  ('O=C(Nc1nc(-c2ccccn2)cs1)c1ccc(Cl)cc1', 0.20),
  ('O=C(Nc1nc(-c2ccccn2)cs1)c1ccsc1', 0.20),
  ('O=C(Nc1nc(-c2ccccn2)cs1)c1ccncc1', 0.20),
  ('Cc1cccc(C)c1Nc1nc(-c2ccccn2)cs1', 1.10),
  ('O=C(Nc1nc(-c2ccccn2)cs1)c1ccccn1', 0.80),
  ('O=C(Nc1nc(-c2ccccn2)cs1)c1cccc(Br)c1', -1.01),
  ('Cc1cccc(Nc2nc(-c3ccccn3)cs2)c1C', 1.10),
  ('O=C(Nc1nc(-c2ccccn2)cs1)c1ccoc1', 0.49),
  ('CC(=O)c1ccc(C(=O)Nc2nc(-c3ccccn3)cs2)cc1', -0.41),
  ('O=C(Nc1nc(-c2ccccn2)cs1)c1ccccc1Cl', -0.41),
  ('Cc1ccc(Nc2nc(-c3ccccn3)cs2)cc1', 1.10),
  ('COc1cccc(C(=O)Nc2nc(-c3ccccn3)cs2)c1', -0.72),
  ('O=C(Nc1nc(-c2ccccn2)cs1)c1ccc(OCc2ccccc2)cc1', -0.72),
  ('O=C(Nc1nc(-c2ccccn2)cs1)c1cccc(OCc2ccccc2)c1', -0.41),
  ('Fc1cccc(Nc2nc(-c3ccccn3)cs2)c1', 1.40),
  ('FC(F)(F)c1cccc(Nc2nc(-c3ccccn3)cs2)c1', 1.40),
  ('O=C(Nc1nc(-c2ccccn2)cs1)c1cccnc1Cl', -0.41),
  ('CC(=O)c1cccc(C(=O)Nc2nc(-c3ccccn3)cs2)c1', -0.41);
